Readout label: melting point

- Compound: "OCCc1nccn1CCCc1ccc(OCc2coc(/C=C/c3c(F)cccc3F)n2)cc1"
  Readout label: "melting point"
  Value reported: "106 to 107 °C"
- Compound: "COc1cc(OC)nc(Oc2cccc3c2C(=O)OC3Cl)n1 (centres undefined)"
  Readout label: "melting point"
  Value reported: "143 to 144 °C"
- Compound: "O=C1c2ccccc2C(=O)c2c1cc(CBr)c1c2CCC1"
  Readout label: "melting point"
  Value reported: "225 to 230 °C"
- Compound: "CCc1nc2c(N)nc3cccnc3c2n1CC1(O)CCN(S(C)(=O)=O)CC1"
  Readout label: "melting point"
  Value reported: "> 255 °C"

###

Readout label: melting point

- Compound: "Cc1ccccc1C(=O)NCC(C)O (stereo unspecified)"
  Value reported: "78 to 81 °C"
- Compound: "O=C1C(CCO)Oc2cc(F)ccc2N1Cc1cccc(Cl)c1 (stereo unspecified)"
  Value reported: "79 to 82 °C"
- Compound: "ClCc1ccc(-c2ccccc2)cn1"
  Value reported: "73 °C"
- Compound: "CCCCOc1cc(C(=O)O)cc(NC=O)c1C(=O)c1ccccc1"
  Value reported: "180 to 183 °C"
- Compound: "COc1nc2nc(C(OC(C)=O)C3(Br)C(=O)N4C(C(=O)OCc5ccc([N+](=O)[O-])cc5)=CSC43)cn2c2c1CCC2 (stereo unspecified)"
  Value reported: "119 °C"
- Compound: "COc1ccccc(Br)c1=O"
  Value reported: "74 to 75 °C"
- Compound: "CCN1c2c(occ(C=O)c2=O)-c2ccccc2S1(=O)=O"
  Value reported: "160 to 162 °C"
- Compound: "NC(=O)c1cccc(C2OCCO2)c1"
  Value reported: "92 to 94 °C"
- Compound: "OC1(COc2cccc3ccccc23)CCN(Cc2ccccc2)C1 (stereo unspecified)"
  Value reported: "130 °C"
- Compound: "CC(=O)c1cc2c(Cl)cc(F)c(-n3c(=O)cc(C(F)(F)F)n(C)c3=O)c2o1"
  Value reported: "193 to 194 °C"
- Compound: "NC(=O)c1c(Cl)c(-c2ccccc2)n2c1CN(S(=O)(=O)c1ccc(F)cc1)CC2"
  Value reported: "177 to 178 °C"
- Compound: "CC(=O)CCCCC(=O)Nc1ccc(CC(NC(C)=O)C(=O)NCC(=O)OCc2ccccc2)cc1 (stereo unspecified)"
  Value reported: "178 to 180 °C"
- Compound: "CS(=O)(=O)Nc1ccc(CCCOCCCCCCNCC(O)c2cc(O)cc(O)c2)cc1 (stereo unspecified)"
  Value reported: "66 to 69 °C"
- Compound: "CC(=O)OC(C)(C)C(=O)Nc1ccc(Sc2ccc(N)cc2)cc1Cl"
  Value reported: "130 to 132 °C"
- Compound: "CCOC(=O)c1cnn(-c2ncc(Cl)cc2Cl)c1N"
  Value reported: "98 to 101 °C"
- Compound: "COc1cc(NC(=O)c2ccccc2)c(=O)[nH]c1C"
  Value reported: "247 to 248 °C"

###

- Compound: "CCOC(=O)C(C)(C(=O)OCC)c1cc(=O)n(Cc2ccccc2)c2ccccc12"
  melting point: "130 to 131 °C"
- Compound: "CS(=O)(=O)N1CCC(Nc2ncc(C(=O)c3ccccc3)c(N)n2)CC1"
  melting point: "249 to 250 °C"
- Compound: "Cc1cccc(-c2n[nH]cc2-c2ccc(F)c(-c3c[nH]c(C(C)(C)O)n3)c2)n1"
  melting point: "135 to 137 °C"
- Compound: "CC1(C)Cc2c(Cl)c([N+](=O)[O-])cc(C(=O)O)c2O1"
  melting point: "260 to 262 °C"
- Compound: "CCN(c1nc(C)cc(C)n1)c1ccc(CC=NOC)cc1SC"
  melting point: "106 to 108 °C"
- Compound: "Cc1c(Br)c2c(c(C)c1NC(=O)OC(C)(C)C)C(N(C)C)C(C)(C)O2 (stereo unspecified)"
  melting point: "111 to 112 °C"

###

molecules and their reported melting point

- Molecule: "CC1Cc2cc3c(cc2C(c2ccc([N+](=O)[O-])cc2)=NN1c1nncs1)OCO3 (stereo not drawn)"
  melting point: "212 to 213 °C"
- Molecule: "Cc1ccc(S(=O)(=O)O[C@H](Cc2ccccc2)C(=O)NCCc2ocnc2C(=O)OCc2ccccc2)cc1"
  melting point: "96 to 98 °C"
- Molecule: "CCCCc1cn(-c2ccccc2CC)c(=O)n1Cc1ccc(-c2ccccc2-c2nnn[nH]2)cc1"
  melting point: "188 to 189 °C"

###

- Smiles input: "COC(=O)c1ccc(-c2n[nH]c3c2Cc2ccccc2-3)cc1"
  melting point: "224 to 226 °C"
- Smiles input: "CCc1noc(-c2cc3c4ccccc4n(CCCN4CCC(O)(c5ccccc5)CC4)c3cn2)n1"
  melting point: "169 to 170 °C"
- Smiles input: "CN(C#N)C(=O)CCCCCCCCC(=O)N(C)C#N"
  melting point: "83.4 to 84 °C"

###

Readout label: melting point

- Molecule: "NC(=O)NCCNc1ccc([N+](=O)[O-])cc1"
  Value reported: "187 °C"
- Molecule: "C=C(C)c1ccc(OCCO)cc1"
  Value reported: "78 to 80 °C"
- Molecule: "CC(C)(C)c1cc(OCCCCCCc2nnn[nH]2)cc(C(C)(C)C)c1"
  Value reported: "113 to 115 °C"
- Molecule: "CN1CCN(Cc2cccc(-c3cc4c(Nc5ccc6[nH]ccc6c5)c(C#N)cnc4s3)c2)CC1"
  Value reported: "128 to 130 °C"
- Molecule: "O=CNc1ccc(OCCNCC(O)c2ccc(OCc3ccccc3)cc2)cc1 (centres undefined)"
  Value reported: "152 °C"
- Molecule: "Cc1cc(CCCCCCCOc2ccc(C(=O)NN)cc2)on1"
  Value reported: "121 to 122 °C"
- Molecule: "CN1C(=O)Nc2c(Cl)cc(Cl)cc2C12NC(=O)NC2=O (centres undefined)"
  Value reported: "> 280 °C"
- Molecule: "Cc1nn(C)c(C)c1S(=O)(=O)n1c(CCCC(=O)O)cc2cc(Cl)ccc21"
  Value reported: "142 to 145 °C"
- Molecule: "O=C(NCCC(F)=C(F)F)C(=O)NCCC(F)=C(F)F"
  Value reported: "139 to 141 °C"
- Molecule: "O=C1OCCC12Sc1cc(Cl)ccc1C2=O (centres undefined)"
  Value reported: "157 to 158 °C"
- Molecule: "N[C@@H](Cc1cc(F)cc(F)c1)[C@H](O)CO"
  Value reported: "93 °C"
- Molecule: "COc1ccc(CC(=O)NCc2ccccc2-c2ccccc2C(=O)NCCc2cccnc2)cc1"
  Value reported: "116 °C"
- Molecule: "CN(C)CCOC(=O)CCc1c(C(=O)OCCN(C)C)[nH]c2cc(Cl)cc(Cl)c12"
  Value reported: "95 to 97 °C"
- Molecule: "CNc1nn(C)c2nc3n(c(=O)c12)CCS3"
  Value reported: "255 to 256 °C"

###

- Compound: "CN(C)C1CCN(c2nccc(Oc3ccc(NC(=O)c4cc(F)cc(N5CCCCC5)c4)c4ccccc34)n2)C1 (stereo unspecified)"
  melting point: "93 to 94 °C"
- Compound: "CC(C)(C)n1cc(-c2ccc(N(C=O)c3ccccc3)cc2)c2cncnc21"
  melting point: "163 to 164 °C"
- Compound: "COc1cc2ncc(C#N)c(Nc3ccc(F)c(Cl)c3)c2cc1NC(=O)C=CCN1CCSC1"
  melting point: "135 to 138 °C"
- Compound: "O=C1CC2(CC(=O)O1)c1ccccc1Oc1ccccc12"
  melting point: "188 to 190 °C"
- Compound: "COCCNS(=O)(=O)c1cccc(Nc2nccc(-c3sc(C)nc3C)n2)c1"
  melting point: "197 to 198 °C"
- Compound: "COC=C(C(=O)OC)c1ccccc1O"
  melting point: "125 to 126 °C"
- Compound: "Cc1ccccc1P(=O)(Cc1ccc2ccccc2c1-c1c(CP(=O)(c2ccccc2C)c2ccccc2C)ccc2ccccc12)c1ccccc1C"
  melting point: "231 to 234 °C"
- Compound: "O=C(O)C1Cc2ccccc2N1C(=O)c1ccccc1 (stereo unspecified)"
  melting point: "209 to 210 °C"
- Compound: "C=CC(=O)OCc1cn(CCCCCCCCCCCC)nn1"
  melting point: "50 to 52 °C"
- Compound: "Clc1ccc2c(c1)NC(c1ccncc1)c1cc(Cl)ccc1O2 (stereo unspecified)"
  melting point: "202 to 205 °C"
- Compound: "CCOC(=O)c1ccc(COCc2csc3nc(C(=O)NCc4cccc(OC)c4)[nH]c(=O)c23)cc1"
  melting point: "173 °C"
- Compound: "CCCCCNC(=O)Nc1ccc(N(C)C)cc1C(=O)NCC1CCN(C(c2ccccc2)c2ccccc2)CC1"
  melting point: "218 °C"
- Compound: "C[C@@H](Cn1ncc2ccc3c(c21)O[C@@H](CN=[N+]=[N-])CO3)NC(=O)OC(C)(C)C"
  melting point: "134 to 135 °C"
- Compound: "Cn1ccc2cccc(C3=C(c4c[nH]c5c(CCCO)cccc45)C(=O)NC3=O)c21"
  melting point: "183 to 185 °C"
- Compound: "CCOC(=O)c1c(N=[N+]=[N-])cc(C(F)(F)F)nc1C(F)(F)F"
  melting point: "63 to 64.5 °C"
- Compound: "CC(=O)OCCn1ncc(-c2ncc([N+](=O)[O-])n2C)c1C"
  melting point: "79 °C"
